B1: library; a variant is named by its letters at N, in order (parent)
chain: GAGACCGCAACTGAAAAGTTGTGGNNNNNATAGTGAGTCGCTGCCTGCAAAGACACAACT

Variants of: B1
Assay: ligation selection enrichment (abundance after / before one-round selection) (fold); higher = more template-directed ligation activity
Settings: with T7Psub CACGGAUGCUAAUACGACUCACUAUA; MgCl2 25 mM; 42 °C; 4 h; pH 8.5
Hi, to clarify the labels: T covers ligation selection enrichment from 0.2 upward, F covers anything below 0.2.

Sample answers from the record:
mutation code: GGGTG
cat: T
//
mutation code: ACGTA
cat: T
//
mutation code: GCATG
cat: T

### Prompt Dear colleague, could you confirm whether `ATATC` has ligation selection enrichment at or above 0.2?
### Response F

### Prompt Dear colleague, could you confirm whether `CATTA` has ligation selection enrichment at or above 0.2?
### Response F

### Prompt Dear colleague, could you confirm whether `CAGGC` has ligation selection enrichment at or above 0.2?
### Response T
